Multi-source literature compilation: pIC50 on UniProtKB P36897.
pIC50: −log10 of the molar value.

{"Smi": "CC(C)(O)c1cc(Nc2cc(Oc3cc(C4CC4)nn3C3CCOCC3)ccn2)ccn1", "Censoring Qualifier": "=", "pIC50": 7.21}
{"Smi": "CC(=O)Nc1cc(Nc2cc(-c3cc(Cl)ccc3F)c(=O)[nH]c2C(C)C)ccn1", "Censoring Qualifier": "≥", "pIC50": 6.30}
{"Smi": "NC(=O)c1cnc2ccc(-c3ccccc3-c3cccc(C(F)(F)F)n3)cn12", "Censoring Qualifier": "=", "pIC50": 7.82}
{"Smi": "CC(C)C(=O)Nc1cc(Nc2cc(-c3cc(Cl)ccc3F)nc3ncccc23)ccn1", "Censoring Qualifier": ">", "pIC50": 7.00}
{"Smi": "CC(C)c1[nH]c(=O)c(-c2cc(Cl)ccc2F)cc1Nc1ncnc2c1CC(=O)N2", "Censoring Qualifier": "≥", "pIC50": 6.30}
{"Smi": "CC(C)n1cc(-c2cncc(-c3ccc4c(c3)NC(=O)C4(C)C)c2)ccc1=O", "Censoring Qualifier": "=", "pIC50": 6.16}
{"Smi": "COc1cc(-c2cnc3sc(NCc4cccs4)nn23)cc(OC)c1OC", "Censoring Qualifier": "=", "pIC50": 6.48}
{"Smi": "CC(=O)Nc1cc(Nc2cc(-c3ccc(F)c(C)c3)c(=O)[nH]c2C(C)C)ccn1", "Censoring Qualifier": "≥", "pIC50": 6.30}

----------
pIC50: −log10 of the molar value.
Multi-source literature compilation: pIC50 on TGF-beta receptor type-1 (Homo sapiens, UniProt P36897).

{"Smi": "O=c1c2cnccc2c(-c2cc(-c3cc(Cl)ccc3F)nc3ncccc23)cn1CCN1CCCC1", "Censoring Qualifier": ">", "pIC50": 6.00}
{"Smi": "COc1cc(-c2cnc3sc(NCC4CCOCC4)nn23)cc(OC)c1OC", "Censoring Qualifier": "=", "pIC50": 6.09}
{"Smi": "CC(C)n1cc(-c2cncc(-c3ccc4c(c3)CCC(=O)N4C)c2)ccc1=O", "Censoring Qualifier": "=", "pIC50": 6.24}
{"Smi": "Cc1nc(C(F)(F)F)ccc1Oc1ccnc(Nc2ccnc(C(C)(C)O)c2)c1", "Censoring Qualifier": "=", "pIC50": 7.85}
{"Smi": "CCOC(=O)c1cc(Nc2cc(-c3cc(F)ccc3F)nc3ncccc23)ccn1", "Censoring Qualifier": "<", "pIC50": 5.00}
{"Smi": "CC(C)c1[nH]c(=O)c(-c2ccc(F)nc2)cc1Nc1ccnc2[nH]ccc12", "Censoring Qualifier": "<", "pIC50": 5.30}
{"Smi": "Nc1nccc2c(-c3cc(-c4cc(F)ccc4F)nc4ncccc34)cccc12", "Censoring Qualifier": ">", "pIC50": 6.00}
{"Smi": "N#Cc1cnccc1Nc1cc(-c2cc(Cl)ccc2F)nc2ncccc12", "Censoring Qualifier": ">", "pIC50": 7.00}
{"Smi": "C[C@H](c1ccc(-c2cnc(N)c(C(=O)N[C@H]3CC[C@](C)(O)CC3)c2)cc1)N1CC2(COC2)C1", "Censoring Qualifier": "=", "pIC50": 5.04}
{"Smi": "Cc1ccc(-c2nc(C3CC3)nc3sc(C(N)=O)c(N)c23)o1", "Censoring Qualifier": "=", "pIC50": 7.32}
{"Smi": "CC(C)c1[nH]c(=O)c(-c2cc(Cl)ccc2F)cc1Nc1ccnc(NC(=O)CN2CCOCC2)c1", "Censoring Qualifier": "<", "pIC50": 5.30}
{"Smi": "CC(C)(O)c1cc(Nc2cc(Oc3cc(C(F)(F)F)nn3C(C)(C)C)ccn2)ccn1", "Censoring Qualifier": "=", "pIC50": 7.47}
{"Smi": "COCCN1C[C@H]2C[C@@]2(c2ccc(-c3cnc(N)c(C(=O)N[C@H]4CC[C@H](O)CC4)c3)cc2)C1", "Censoring Qualifier": "=", "pIC50": 5.34}
{"Smi": "CC(C)(O)c1cc(Nc2cc(Oc3ccc(C4CC4)nc3C3CCOCC3)ccn2)ccn1", "Censoring Qualifier": "=", "pIC50": 6.94}
{"Smi": "Cc1cccc2c(Nc3ccnc(Nc4cccc(CN5CCN(C)CC5)c4)n3)cnnc12", "Censoring Qualifier": ">", "pIC50": 8.00}

----------
Multi-source literature compilation: IC50 on TGF-beta receptor type-1 (Homo sapiens, UniProt P36897).
Reported Metric: IC50

{"Compound": "CN1CCN(CCCn2cc(-c3cncc(-c4ccnc(-c5ccccc5F)c4)c3)cn2)CC1", "Tgt": "TGF-beta receptor type-1 (Homo sapiens, UniProt P36897)", "Experimental Result": "< 1 µM"}
{"Compound": "N#Cc1cncnc1Nc1cc(-c2cc(Cl)ccc2F)nc2ncccc12", "Tgt": "TGF-beta receptor type-1 (Homo sapiens, UniProt P36897)", "Experimental Result": "< 0.1 µM"}
{"Compound": "OCc1cnccc1Nc1cc(-c2cc(C(F)(F)F)ccc2F)nc2ncccc12", "Tgt": "TGF-beta receptor type-1 (Homo sapiens, UniProt P36897)", "Experimental Result": "< 0.1 µM"}
{"Compound": "CC(O)CNC(=O)c1cnccc1Nc1nc(-c2cc(Cl)ccc2F)nc2nc(NCCN(C)C)ccc12 (centres unmarked)", "Tgt": "TGF-beta receptor type-1 (Homo sapiens, UniProt P36897)", "Experimental Result": "12.2 µM"}
{"Compound": "Nc1nccc2c(-c3cc(-c4cc(Cl)ccc4F)nc4ncccc34)cccc12", "Tgt": "TGF-beta receptor type-1 (Homo sapiens, UniProt P36897)", "Experimental Result": "< 1 µM"}
{"Compound": "COCCN1C[C@@H]2C[C@]2(c2ccc(-c3cnc(N)c(C(=O)NC45CCC(O)(CC4)CC5)c3)cc2)C1", "Tgt": "TGF-beta receptor type-1 (Homo sapiens, UniProt P36897)", "Experimental Result": "5.45 µM"}
{"Compound": "Fc1ccc(Cl)cc1-c1cc(-c2ncnc3cnccc23)c2cccnc2n1", "Tgt": "TGF-beta receptor type-1 (Homo sapiens, UniProt P36897)", "Experimental Result": "< 1 µM"}
{"Compound": "CC(C)(C)CC(=O)Nc1cc(Nc2cc(-c3cc(Cl)ccc3F)nc3ncccc23)ncn1", "Tgt": "TGF-beta receptor type-1 (Homo sapiens, UniProt P36897)", "Experimental Result": "< 0.1 µM"}
{"Compound": "Cc1cccc(-c2cc(C)sc2-c2ccc3ncc(C(N)=O)n3c2)n1", "Tgt": "TGF-beta receptor type-1 (Homo sapiens, UniProt P36897)", "Experimental Result": "0.0094 µM"}
{"Compound": "Fc1ccc(Cl)cc1-c1cc(-c2ccc(OCCN3CCCC3)c3cnccc23)c2cccnc2n1", "Tgt": "TGF-beta receptor type-1 (Homo sapiens, UniProt P36897)", "Experimental Result": "< 1 µM"}
{"Compound": "CN(C)CCCn1cc(-c2cncc(-c3ccnc(-c4cc(F)ccc4F)c3)c2)cn1", "Tgt": "TGF-beta receptor type-1 (Homo sapiens, UniProt P36897)", "Experimental Result": "< 1 µM"}
{"Compound": "CC(C)n1nc(-c2cncc(-c3ccc4c(c3)CC(=O)N4C)c2)ccc1=O", "Tgt": "TGF-beta receptor type-1 (Homo sapiens, UniProt P36897)", "Experimental Result": "5.7 µM"}
{"Compound": "Cc1cccc(-c2ccccc2-c2ccc3ncc(C)n3c2)n1", "Tgt": "TGF-beta receptor type-1 (Homo sapiens, UniProt P36897)", "Experimental Result": "0.126 µM"}
{"Compound": "Fc1ccc(Cl)cc1-c1cc(-c2cncc(-c3cnn(C4CCNCC4)c3)c2)ccn1", "Tgt": "TGF-beta receptor type-1 (Homo sapiens, UniProt P36897)", "Experimental Result": "< 1 µM"}
{"Compound": "NC(=O)c1sc2nc(OCC3CC3)nc(-c3cccc(C(F)(F)F)c3)c2c1N", "Tgt": "TGF-beta receptor type-1 (Homo sapiens, UniProt P36897)", "Experimental Result": "> 1 µM"}
{"Compound": "Cc1ccn(-c2cc(-c3c[nH]c4cnccc34)c3cccnc3n2)n1", "Tgt": "TGF-beta receptor type-1 (Homo sapiens, UniProt P36897)", "Experimental Result": "< 1 µM"}
{"Compound": "CN1CCC(n2cc(-c3cncc(-c4cc(-c5ccccc5F)nc5nccnc45)c3)cn2)CC1", "Tgt": "TGF-beta receptor type-1 (Homo sapiens, UniProt P36897)", "Experimental Result": "< 1 µM"}

----------
Multi-source literature compilation: IC50 on TGF-beta receptor type-1 (Homo sapiens).

{"Compound": "Cc1cccc(-c2nc(CNc3ccc4c(c3)CCNC4)[nH]c2-c2ccc3ncnn3c2)n1", "Tgt": "TGF-beta receptor type-1 (Homo sapiens)", "IC50": "100 to 1000 nM"}
{"Compound": "O=C(NCCN1CCCC1)c1cnccc1Nc1cc(-c2cc(Cl)ccc2F)nc2ncccc12", "Tgt": "TGF-beta receptor type-1 (Homo sapiens)", "IC50": "< 100 nM"}
{"Compound": "C=CCNc1nc(-c2ccc(C)o2)c2c(N)c(C(N)=O)sc2n1", "Tgt": "TGF-beta receptor type-1 (Homo sapiens)", "IC50": "67 nM"}
{"Compound": "COC(=O)c1cnccc1Nc1nc(-c2cc(Cl)ccc2F)nc2ncccc12", "Tgt": "TGF-beta receptor type-1 (Homo sapiens)", "IC50": "1370 nM"}
{"Compound": "Cc1cccc(-c2nc(CN[C@H]3c4ccccc4C[C@H]3O)[nH]c2-c2ccc3ncnn3c2)n1", "Tgt": "TGF-beta receptor type-1 (Homo sapiens)", "IC50": "10 to 100 nM"}
{"Compound": "NS(=O)(=O)c1ccc(Nc2cc(Oc3cc(C4CC4)nn3C3CC3)ccn2)cc1", "Tgt": "TGF-beta receptor type-1 (Homo sapiens)", "IC50": "44 nM"}
{"Compound": "NCC1CC(n2cc(-c3cccnc3)c3c(N)ncnc32)C1 (stereo not drawn)", "Tgt": "TGF-beta receptor type-1 (Homo sapiens)", "IC50": "950 nM"}
{"Compound": "Cn1ccc(COc2nc(-c3cccc(Cl)c3)c3c(N)c(C(N)=O)sc3n2)n1", "Tgt": "TGF-beta receptor type-1 (Homo sapiens)", "IC50": "< 100 nM"}
{"Compound": "COc1ccc(-c2cc(-c3ccccc3F)nc3ncccc23)c2ccncc12", "Tgt": "TGF-beta receptor type-1 (Homo sapiens)", "IC50": "< 1000 nM"}
{"Compound": "CN1CCC(C(=O)Nc2cc(Nc3cc(-c4cc(F)ccc4F)nc4ncccc34)ncn2)CC1", "Tgt": "TGF-beta receptor type-1 (Homo sapiens)", "IC50": "< 100 nM"}
{"Compound": "Fc1ccccc1-c1cc(-c2cncc(-c3cnc4[nH]c(C(F)(F)F)cc4c3)c2)ccn1", "Tgt": "TGF-beta receptor type-1 (Homo sapiens)", "IC50": "1000 to 10000 nM"}
{"Compound": "Cc1coc(-c2ccccc2-c2ccc3ncc(C(N)=O)n3c2)n1", "Tgt": "TGF-beta receptor type-1 (Homo sapiens)", "IC50": "74 nM"}
{"Compound": "OCc1cnccc1Nc1cc(-c2cc(F)ccc2F)nc2ncccc12", "Tgt": "TGF-beta receptor type-1 (Homo sapiens)", "IC50": "< 100 nM"}
{"Compound": "Fc1ccc(Cl)cc1-c1cc(-n2ccc3cnccc32)c2cccnc2n1", "Tgt": "TGF-beta receptor type-1 (Homo sapiens)", "IC50": "< 100 nM"}
{"Compound": "Cc1cccc(-c2ccc(C(N)=O)cc2-c2ccc3ncc(C(N)=O)n3c2)n1", "Tgt": "TGF-beta receptor type-1 (Homo sapiens)", "IC50": "63 nM"}
{"Compound": "COCCN1C[C@@H]2C[C@]2(c2ccc(-c3cnc(N)c(C(=O)N[C@H]4CC[C@H](O)CC4)c3)cc2)C1", "Tgt": "TGF-beta receptor type-1 (Homo sapiens)", "IC50": "3800 nM"}
{"Compound": "Cc1cc(F)cc2c(Nc3ccnc(Nc4ccc(N5CCN(C)CC5)cc4)n3)cnnc12", "Tgt": "TGF-beta receptor type-1 (Homo sapiens)", "IC50": "< 10 nM"}
{"Compound": "Fc1ccc(Cl)cc1-c1cc(-n2ccc3cncnc32)c2cccnc2n1", "Tgt": "TGF-beta receptor type-1 (Homo sapiens)", "IC50": "< 100 nM"}
